# test-system: T1, Rat IL-23R_huFC (rat, UniProt F1LX96 39-369)
# T1 sequence: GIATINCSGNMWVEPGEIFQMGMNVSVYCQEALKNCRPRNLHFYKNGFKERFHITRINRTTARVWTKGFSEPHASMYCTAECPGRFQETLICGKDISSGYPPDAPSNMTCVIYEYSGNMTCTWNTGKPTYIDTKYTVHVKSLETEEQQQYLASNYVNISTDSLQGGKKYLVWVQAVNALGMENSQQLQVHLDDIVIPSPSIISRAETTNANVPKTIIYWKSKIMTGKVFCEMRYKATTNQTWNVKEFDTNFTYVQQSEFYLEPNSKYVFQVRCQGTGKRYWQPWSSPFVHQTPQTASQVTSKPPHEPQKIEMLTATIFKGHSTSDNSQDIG
# test: rat IL-23R competitive binding ELISA
outcome-measure: IC50

Examples with their reported IC50 follow.
Task item: State the recorded IC50 for this entry: XQTWQXFXVKNN (not fully specified; Ac; Pen-Pen disulfide; Phe[4-(2-acetylaminoethoxy)]; 2-Nal; α-MeVal; NH2; DIG linker joins the two subunits) [[Ac-[Pen]-QTWQ[Pen]-[Phe[4-(2-acetylaminoethoxy)]-[2-Nal]-[α-MeVal]-KNN-NH2]2DIG]
Reply: 0.01 to 0.025 µM

Task item: Recorded IC50 of XQTWQXFXKKNN (Ac; Pen-Pen disulfide; Phe(4-OMe); 2-Nal; α-MeLys; Lys(Ac); NH2; DIG linker joins the two subunits) [[Ac-[Pen]-QTWQ-[Pen]-[Phe(4-OMe)]-[2-Nal]-[α-MeLys]-[Lys(Ac)]-NN-NH2]2DIG] , please.
Reply: 0.01 to 0.025 µM

For every record below, what is its IC50?
1. XQTWQXFXKKNN (Ac; Pen-Pen disulfide; Phe[4-(2-acetylaminoethoxy)]; 2-Nal; Lys(Ac); NH2; DIG linker joins the two subunits) [[Ac-[Pen]-QTWQ[Pen]-[Phe[4-(2-acetylaminoethoxy)]-[2-Nal]-K-[Lys(Ac)]-NN-NH2]2DIG]
2. XQTWQXFXKKNN (Ac; Pen-Pen disulfide; Phe(4-CONH2); 2-Nal; α-MeLys; Lys(Ac); NH2; DIG linker joins the two subunits) [[Ac-[Pen]-QTWQ-[Pen]-[Phe(4-CONH2)]-[2-Nal]-[α-MeLys]-[Lys(Ac)]-NN-NH2]2DIG]

Reply:
0.025 to 0.1 µM
0.01 to 0.025 µM
